molecular target: GYG1; assay: pooled miR-30 sensor sort-seq; sequence = guide strand; conditions: shRNA; also: reference of the scale not given here
attribute-measured: sensor-assay potency score (higher = more potent)

>  <monomer-sequence>
TACTGTGTAAGCGACCAGCAGT

>  <recorded-value>
-0.399

$$$$
>  <monomer-sequence>
TACAGAACTGAACAAAAGCATT

>  <recorded-value>
-1.48

$$$$
>  <monomer-sequence>
TTGCTCAGAAGCAAGATGCAAC

>  <recorded-value>
-0.936

$$$$
>  <monomer-sequence>
TTACTGTACACAGAAAACTGGT

>  <recorded-value>
-0.292

$$$$
>  <monomer-sequence>
TAACCATCAGAGAACACACTGC

>  <recorded-value>
0.344

$$$$
>  <monomer-sequence>
TTGAAGCAGAGGTAAAACGTTG

>  <recorded-value>
-0.811

$$$$
>  <monomer-sequence>
TTTAAGAACTGATACAGCCATC

>  <recorded-value>
-1.1

$$$$
>  <monomer-sequence>
TAACAGACTTTTCTCAACCCAG

>  <recorded-value>
-0.49

$$$$
